Target: soybean 15-lipoxygenase (Glycine max)
Construct: gene LOX1.1
Test: spectrophotometric assay at […] nm of […](S)-HPODE formation from linoleic acid, pH […]
Assay type: biochemical
Conditions: read-out: IC50
metric: pIC50
Worth noting: pIC50 values are minus log10 of concentrations stated in mol/L.

Challenge: Find the recorded pIC50 belonging to C[C@H]1[C@H](C)CC[C@]2(C(=O)O)CC[C@]3(C)C(=CC[C@@H]4[C@@]5(C)CC[C@H](O)C(C)(C)[C@@H]5CC[C@]43C)[C@H]12 and report it.
Response given: 3.76

* * *

Target: soybean 15-lipoxygenase (Glycine max, UniProt P08170)
Construct: gene LOX1.1
Sequence (P08170 whole entry): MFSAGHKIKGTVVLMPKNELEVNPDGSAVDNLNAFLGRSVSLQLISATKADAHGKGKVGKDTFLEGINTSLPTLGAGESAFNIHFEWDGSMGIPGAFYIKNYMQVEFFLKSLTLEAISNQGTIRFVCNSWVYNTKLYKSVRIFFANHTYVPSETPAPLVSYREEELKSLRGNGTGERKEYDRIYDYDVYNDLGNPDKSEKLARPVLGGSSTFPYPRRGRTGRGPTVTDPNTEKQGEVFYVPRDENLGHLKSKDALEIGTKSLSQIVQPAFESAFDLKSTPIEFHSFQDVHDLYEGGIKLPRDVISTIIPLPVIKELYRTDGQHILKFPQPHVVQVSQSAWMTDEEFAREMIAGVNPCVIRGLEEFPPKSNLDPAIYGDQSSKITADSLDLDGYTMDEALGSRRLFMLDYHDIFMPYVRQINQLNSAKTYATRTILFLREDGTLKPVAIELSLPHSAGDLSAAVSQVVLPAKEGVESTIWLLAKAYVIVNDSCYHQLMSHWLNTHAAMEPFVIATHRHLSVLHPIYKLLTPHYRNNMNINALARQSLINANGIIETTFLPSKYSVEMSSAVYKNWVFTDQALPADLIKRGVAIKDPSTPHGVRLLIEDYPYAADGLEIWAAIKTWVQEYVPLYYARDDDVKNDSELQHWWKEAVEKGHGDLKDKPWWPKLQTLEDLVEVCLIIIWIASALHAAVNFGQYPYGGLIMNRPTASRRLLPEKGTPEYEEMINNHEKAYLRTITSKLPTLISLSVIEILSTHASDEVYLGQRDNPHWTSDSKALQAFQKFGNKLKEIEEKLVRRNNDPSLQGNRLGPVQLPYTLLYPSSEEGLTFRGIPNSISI
Assay: spectrophotometric assay at […] nm of […](S)-HPODE formation from linoleic acid, pH […]
Assay type: biochemical
metric: pIC50
Worth noting: pIC50 values are minus log10 of concentrations stated in mol/L.

Challenge: Lookup: pIC50 / soybean 15-lipoxygenase (Glycine max, UniProt P08170) / CC1(C)CC[C@]2(C(=O)O)CC[C@]3(C)C(=CC[C@@H]4[C@@]5(C)CC[C@H](O)C(C)(C)[C@@H]5CC[C@]43C)[C@@H]2C1
Response given: 3.58
